Tested on: Fibrinogen (Alexa647-labelled)
Method summary: fibrinogen binders on compound microarrays, profiling panel, artefact control for SMM control-protein annotation, biochemical, small-molecule microarray, 635/667 nm fluorescence (AID 1131);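 note: z-score merges 667 nm fluorescence with per-spot signal-to-noise over triplicate slides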
Protocol conditions: fibrinogen-A647 binding fluorescence, higher = more signal
Each record's class is read off its composite z-score using these ranges: category 1 = under 0.1, category 2 = from 0.1 up to 0.8, category 3 = 0.8 and over

Compound: CC(C)C[C@@H]1NC(=O)[C@@H]2C[C@H](C(=O)NCCCCCC[N+](C)(C)C)[C@H](c3ccc(O)cc3)N2C1=O
Measured on: Fibrinogen (Alexa647-labelled)
Assigned label: category 2
--
Compound: O=C1OCCC=C[C@H]2OC34C=CCN(c5ccc6ccccc6c5)C(=O)[C@H]3N(CCCCCO)C(=O)[C@@H]4C12 (stereo partly specified)
Measured on: Fibrinogen (Alexa647-labelled)
Assigned label: category 2
--
Compound: CCCCCN1CC=CC23O[C@@H]4C=CCOC(=O)[C@@H]4[C@H]2C(=O)N(CCCO)[C@@H]3C1=O (stereo partly specified)
Measured on: Fibrinogen (Alexa647-labelled)
Assigned label: category 1
--
Compound: COCCOC(=O)N1C(=O)[C@@]2(c3cc(C#CC4=CCCCC4)ccc31)[C@H](C(=O)N1CCc3cc(OC)c(OC)cc3C1)[C@H]1C(=O)O[C@H](c3ccccc3)[C@H](c3ccccc3)N1[C@@H]2c1ccccc1OCCO
Measured on: Fibrinogen (Alexa647-labelled)
Assigned label: category 1
--
Compound: CCOC(=O)C1=CCC(C(C)(C)C)N(S(=O)(=O)c2ccc(C)cc2)C1 (stereo unspecified)
Measured on: Fibrinogen (Alexa647-labelled)
Assigned label: category 3
--
Compound: O=C1O[C@H](c2ccccc2)[C@H](c2ccccc2)N2[C@H]1[C@@H](C(=O)O)[C@]1(C(=O)Nc3ccc(C#CC4(O)CCCCCC4)cc31)[C@H]2c1ccc(OCCO)cc1
Measured on: Fibrinogen (Alexa647-labelled)
Assigned label: category 3
--
Compound: O=c1oc(-c2ccccc2)nc2cc(Br)ccc12
Measured on: Fibrinogen (Alexa647-labelled)
Assigned label: category 2
--
Compound: CCOC(=O)C[C@H]1[C@H](OC(=O)c2ccc(-c3ccccc3)cc2)[C@@H](NC(=O)Cc2ccc(OC)cc2)c2cc(OCCCO)ccc2N1C(=O)c1ccc2ccccc2n1
Measured on: Fibrinogen (Alexa647-labelled)
Assigned label: category 3
--
Compound: [N-]=[N+]=NCc1ccccc1[C@H]1OC(c2ccc(OCCCO)cc2)=N[C@@]1(CCS(=O)(=O)c1ccccc1)C(=O)N1CCOCC1
Measured on: Fibrinogen (Alexa647-labelled)
Assigned label: category 3
--
Compound: CC(C)NC(=O)[C@@H]1c2ccccc2C(=O)N(Cc2ccccc2Cl)[C@H]1c1ccc(CO)cc1
Measured on: Fibrinogen (Alexa647-labelled)
Assigned label: category 1
--
Compound: CCOc1cc(C(O)C2C=CC3C(=O)N(c4ccccc4)C(=O)C3N2Nc2ccc([N+](=O)[O-])cc2)ccc1O (stereo unspecified)
Measured on: Fibrinogen (Alexa647-labelled)
Assigned label: category 1
--
Compound: C=CC[C@@]1(C(=O)N2CCOCC2)N=C(c2ccc(OCCCO)cc2)O[C@@H]1c1ccccc1N=[N+]=[N-]
Measured on: Fibrinogen (Alexa647-labelled)
Assigned label: category 2
--
Compound: Cc1c(NC(=O)CC#N)c(=O)n(-c2ccccc2)n1C
Measured on: Fibrinogen (Alexa647-labelled)
Assigned label: category 2
--
Compound: CC(C)N1C(=O)[C@@]2(c3ccc([N+](=O)[O-])cc3)CC(=O)N(CC34CC5CC(CC(C5)C3)C4)[C@@H]2c2ccc(CO)cc21
Measured on: Fibrinogen (Alexa647-labelled)
Assigned label: category 1
--
Compound: COC(=O)[C@]1(Cc2ccccc2N=[N+]=[N-])N=C(c2ccc(OCCCO)cc2)O[C@@H]1c1ccccc1N=[N+]=[N-]
Measured on: Fibrinogen (Alexa647-labelled)
Assigned label: category 2

Values compiled from PubChem BioAssay.
